# System: Candida albicans
# Assay Overview: Antifungal activity against fluconazole-resistant Candida albicans 18 after 24 hrs
# Type: functional
Quick list: MIC per entry.
# output: bare number, implied unit µM

Examples from the recorded data:
CCCCCCCCCNC1CCc2cc(OC)ccc2C1 (stereo not drawn) :: 0.0625
CC(=O)N1CCN(c2ccc(OC[C@@H]3CO[C@@](Cn4ccnc4)(c4ccc(Cl)cc4Cl)O3)cc2)CC1 [KETOCONAZOLE] :: 4

Then this compound:
Reported MIC ( CCCCCCCCCCNC1CCc2cc(O)ccc2C1 (stereo not drawn) ) = 2

* * *

# Test system: Fonsecaea compacta
# Assay Overview: Antifungal activity against Fonsecaea compacta
# Format: functional
Quick list: MIC per entry.
# output: bare number, implied unit µM

Item: CCCCCCCCCCCCNC1CCc2cc(OC)ccc2C1 (stereo not drawn) | System: Fonsecaea compacta | MIC: 64

Item: CCCCCCCCCCCCCCNC1CCc2ccc(OC)cc2C1 (stereo not drawn) | System: Fonsecaea compacta | MIC: 64

Item: NC1CCc2c(O)cccc2C1 (stereo not drawn) | System: Fonsecaea compacta | MIC: 32

Item: CCCCCCCCCCCCNC1CCc2cc(O)ccc2C1 (stereo not drawn) | System: Fonsecaea compacta | MIC: 4

Item: CCCCCCCCCCNC1CCc2c(cccc2OC)C1 (stereo not drawn) | System: Fonsecaea compacta | MIC: 1

Item: CCCCNC1CCc2cccc(OC)c2C1 (stereo not drawn) | System: Fonsecaea compacta | MIC: 0.25

Item: CCCCNC1CCc2ccc(OC)cc2C1 (stereo not drawn) | System: Fonsecaea compacta | MIC: 4

Item: CCCCCCCCCNC1CCc2cc(OC)ccc2C1 (stereo not drawn) | System: Fonsecaea compacta | MIC: 2

Item: CCCCCCCCCCN1CCc2cc(O)c(O)cc2C1 | System: Fonsecaea compacta | MIC: 16
